Just for reference, PubChem BioAssay (NCATS) is where these values come from.

The compounds listed here are annotated with their viability, percent of control.
Test: Cell Proliferation Assay against the HBL1 Cell Line (AID 651646);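 note: cells exposed to compound for 48 h before reading; 100% = DMSO and 0% = 9.2 µM bortezomib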
Conditions: HBL1 DLBCL cells; at 46.1 µM (top of the series)
Description: One class of targeted therapeutics showing early clinical success in killing of ABC DLBCL lines are small molecule inhibitors of the Bruton tyrosine kinase (BTK) 11. Prior to any combination assays, using an NCATS developed oncology compound library called the Mechanism of Interrogation Plate (MIPE), two well studied ABC DLBCL lines (TMD8 and HBL1) were screened using a cell viability assay (CellTiterGlo) and a 12-point titration series for each single agent. […]
A number alone suffices; assume %.

Entry COc1cc2c(Nc3ccc(Br)cc3F)ncnc2cc1OCC1CCN(C)CC1 , viability, percent of control reported as 4.03

Reported viability, percent of control ( NC1(c2ccc(-c3nc4ccn5c(=O)[nH]nc5c4cc3-c3ccccc3)cc2)CCC1 ) = 1.05

For this compound ( CC(C)C[C@H](NC(=O)[C@H](CCc1ccccc1)NC(=O)CN1CCOCC1)C(=O)N[C@@H](Cc1ccccc1)C(=O)N[C@@H](CC(C)C)C(=O)[C@@]1(C)CO1 ), measured viability, percent of control is 3.69

COc1cc([C@@H]2c3cc4c(cc3[C@H](O)[C@H]3COC(=O)[C@H]23)OCO4)cc(OC)c1OC has a reported viability, percent of control of 23.7

----------
Assay: Quantitative High-Throughput drug screen in 47 multiple myeloma cell lines against the NCATS MIPE library collection: LP1_DSMZ cell viability assay (AID 1918982); note: nearly all actives have a fitted effect of over 35% in size
Conditions: LP1 myeloma viability, CellTiter-Glo ATP luminescence, 48 h; series mostly up to 45.8 µM
Text: PI: Beverly A. Mock Ph.D. Laboratory of Cancer Biology and Genetics, Center for Cancer Research, National Cancer Institute, National Institute of Health, Bethesda, Maryland […] 5; Detector; 425V; Luminescence; Viewlux PerkinElmer. […] 1. […] Briefly, the corresponding myeloma cell lines were screened in 1,536-well plates with 500 cells, 5-uL per well for inhibition of cell viability (assessed by measuring ATP levels with CellTiterGlo). […]
Inconclusive results are not listed. Calls of active or inactive are those of the source. The call rests on the fitted dose curve; in most records, active means well fitted cell-killing curve with a large enough effect; inconclusive means small, poorly fitted or top-dose-only effect, or effect the other way; inactive means no such curve, though single readings can be large or run the other way.
Outcome field: choose from active, inactive

These recorded examples may help you get a feel for the data.
Can you look up the reported call for C#CCN[C@@H]1CCc2ccccc21 for me? inactive

Identify the outcome logged in this assay for the molecule shown: N[C@@H](C(=O)N[C@@H]1C(=O)N2C(C(=O)O)=C(Cl)CS[C@H]12)c1ccccc1 inactive

What is the recorded call for this molecule in the test? COc1ccc2cc3[n+](cc2c1OC)CCc1cc2c(cc1-3)OCO2 active

More entries:
Per the records of this test, what outcome belongs to Cc1nnc(C(=O)NC(C)(C)c2nc(C(=O)NCc3ccc(F)cc3)c(O)c(=O)n2C)o1 ? inactive

# fetch the recorded call for COc1cc2nc(N3CCCN(C)CC3)nc(NC3CCN(Cc4ccccc4)CC3)c2cc1OC here active

How was O=C(O)CSCC(=O)NC1CCSC1=O (stereo not given) classified in this test? inactive

Dear all, I need the recorded test outcome for CNC1CCCN(c2c(F)cc3c(=O)c(C(=O)O)cn(C4CC4)c3c2OC)C1 (stereo not given) , thank you. inactive

Record request — test call for CC(C)Cn1cnc2c(N)nc3ccccc3c21 inactive

Recorded test outcome, item NC(=O)c1cccnc1 inactive

// outcome(item) with item = CNS(=O)(=O)Cc1ccc2[nH]cc(CCN(C)C)c2c1 inactive

Test call for this molecule, please: CC(C(=O)O)c1ccc2c(c1)CC(=O)c1ccccc1S2 (stereo not given) inactive

----------
Assay: Identifying Small Molecule Inhibitors of Pancreatic Cancer Stem Cells (SN12C, Adherent) (AID 1259358);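 note: cell survival measured after 48 h of compound exposure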
Conditions: viability/growth inhibition; series mostly up to 46.1 µM
Results filed as inconclusive are left out. Active and inactive are the calls of the source. Calls come from the whole dose curve; as a rule, active = well fitted cell-killing curve with a large enough effect; inconclusive = small, poorly fitted or top-dose-only effect; inactive = flat fitted curve, though single readings scatter.
Give your call using only these classes: active, inactive

Worked examples, 3 compounds total:
Entry COc1cc([C@@H]2c3cc4c(cc3[C@H](O)[C@H]3COC(=O)[C@H]23)OCO4)cc(OC)c1OC : call = ? active

# outcome recorded in this test, key = NC1(c2ccc(-c3nc4ccn5c(=O)[nH]nc5c4cc3-c3ccccc3)cc2)CCC1 active

Please share the test call associated with Cc1c(-c2ccc(O)cc2)n(Cc2ccc(OCCN3CCCCCC3)cc2)c2ccc(O)cc12 . inactive

Next:
Could you please tell me the result logged for CC(C)C[C@H](NC(=O)[C@H](CCc1ccccc1)NC(=O)CN1CCOCC1)C(=O)N[C@@H](Cc1ccccc1)C(=O)N[C@@H](CC(C)C)C(=O)[C@@]1(C)CO1 in this assay? active

Field: outcome | Entry: CCN(CC)CCn1c(=O)c(Cc2ccc(OC)cc2)nc2ccccc21 inactive

----------
System: CRL-7250
Test: Cytotoxic Profiling of Annotated Libraries Using Quantitative High-Throughput Screening (AID 1296008); note: nearly all actives have a fitted effect of over 60% in size
Conditions: Five cell lines viability, CellTiter-Glo ATP luminescence, 48-72 h
Inconclusive results are not listed. Active and inactive are the calls of the source. Calls follow the shape of the dose curve; as a rule, active = well fitted inhibition curve with a large enough effect; inconclusive = small, poorly fitted or top-dose-only effect; inactive = flat fitted curve, though single readings scatter.
Write down one outcome, taken from active, inactive

Reference set, count: 3
Any idea what this test logged for O=C(NCC1CN(c2ccc(N3CCOCC3=O)cc2)C(=O)O1)c1ccc(Cl)s1 (stereo not drawn) ? inactive

Write down the call the test reported for this compound. Item: COc1cccc(N(C)C(=S)Oc2ccc3c(c2)CCCC3)n1 inactive

Returns: the outcome recorded for Nc1nc(=S)c2[nH]cnc2[nH]1 in this assay. active

New cases:
State the result this test recorded for CCOC(=O)[C@H](CCc1ccccc1)N[C@H]1CS[C@H](c2cccs2)CN(CC(=O)O)C1=O . inactive

Identify the outcome logged in this assay for the compound shown: Cc1cccc(N(C)C(=S)Oc2ccc3ccccc3c2)c1 inactive

Entry CN(Cc1cc(Br)cc(Br)c1N)C1CCCCC1 : call = ? inactive

Please let me know the test result on file for O=c1cc(O)c(Cl)c[nH]1 . inactive

# outcome recorded in this test, key = Nc1nc(N)c2nc(CNc3ccc(C(=O)NC(CCC(=O)O)C(=O)O)cc3)cnc2n1 (stereo not drawn) active

----------
Entries annotated with measured activity, negative = cell killing
Assay: Drug repurposing screens with cells derived from glioblastoma tumor samples (AID 1345199); note: % is set by controls: 0 for no effect and ±100 for the full control effect; nearly all actives have a fitted effect of over 40% in size
Conditions: GBM patient neurospheres viability, ATP luminescence, 48 h; at 20 µM (top of the series); tumour line C
Results filed as inconclusive are left out.
# output: bare number, implied unit %

Worked cases, activity, negative = cell killing given:
For record CCC(=O)O[C@]1(C(=O)SCF)[C@H](C)C[C@H]2[C@@H]3C[C@H](F)C4=CC(=O)C=C[C@]4(C)[C@@]3(F)[C@@H](O)C[C@@]21C the listed activity, negative = cell killing is -9.5

Noted for Nc1[nH]c(=O)ncc1F : its activity, negative = cell killing reads 6.56

Continuing:
Per the record, COC(=O)Nc1nc2ccc(Sc3ccccc3)cc2[nH]1 has activity, negative = cell killing of -28.6

The reported value for CCn1cc(C(=O)O)c(=O)c2cc(F)c(N3CCNCC3)nc21 in terms of activity, negative = cell killing is -1.66

Looking up Nc1ccc(S(=O)(=O)Nc2ccccn2)cc1 , I found its activity, negative = cell killing recorded as -7.01

activity, negative = cell killing recorded for this compound, NS(=O)(=O)c1cc2c(cc1Cl)NC(C(Cl)Cl)NS2(=O)=O (stereo not given) , is 6.84

activity, negative = cell killing in this record for CC(C)(Sc1cc(C(C)(C)C)c(O)c(C(C)(C)C)c1)Sc1cc(C(C)(C)C)c(O)c(C(C)(C)C)c1 : -9.49

Noted for CCOC(=O)c1ccc(OC(=O)CCCCCN=C(N)N)cc1 : its activity, negative = cell killing reads -4.52

Lab note: Cc1cccc(Nc2ccncc2S(=O)(=O)NC(=O)NC(C)C)c1 gave activity, negative = cell killing of -12.8

Noted for COC(=O)Nc1nc2ccc(C(=O)c3ccccc3)cc2[nH]1 : its activity, negative = cell killing reads -22.4

----------
Tested on: Tov-21-G
Test: Primary qHTS to identify gynecologic anti-cancer compounds using libraries of approved drugs and bioactive compounds (AID 1345084); note: % is set by controls: 0 for no effect and ±100 for the full control effect; nearly all actives have a fitted effect of over 55% in size
Settings: Gynecologic cancer cell panel viability, ATPlite luminescence, 48 h; series mostly up to 57.5 µM
Results filed as inconclusive are left out. Calls of active or inactive are those of the source. Calls follow the shape of the dose curve; as a rule, active = well fitted cell-killing curve with a large enough effect; inconclusive = small, poorly fitted or top-dose-only effect, or effect the other way; inactive = flat fitted curve, though single readings scatter.
Hi! Could you answer with just one of these? YES for active, NO for inactive

Hi, do you know how CCn1cc(C(=O)O)c(=O)c2cc(F)c(N3CCNCC3)nc21 came out in this test? NO

Which outcome was entered for the molecule O=C(O)c1cc(=O)[nH]c(=O)[nH]1 in this test? NO

Write down the call the test reported for this molecule. Item: O=NN(CCCl)C(=O)NC1CCCCC1 NO

---
# outcome recorded in this test, key = COc1ccccc1OCC(O)COC(N)=O (configuration not stated) NO

// return assay outcome for COc1ncnc(NS(=O)(=O)c2ccc(N)cc2)c1OC NO

Which outcome was assigned to CN1CCN(c2c(F)cc3c(=O)c(C(=O)O)cn4c3c2OCN4C)CC1 in this test? NO

What outcome does the record of this test show for O=C(O)c1cn(C2CC2)c2cc(N3CCNCC3)c(F)cc2c1=O ? NO
